Starred links: 1 amine or outer side, 2 acyl side, 3 side chain; linkers in the order of their positions; H or OH if unused. Non-standard residues stand in square brackets, D forms with d. Residues, ends and D or L forms follow the SMILES beside them. X1 = O=C(C1CCC(N[*:1])CC1)[*:2]
This section lists pIC50 readings for Myosin light chain kinase, smooth muscle (Gallus gallus).
When answering, recall that pIC50 equals minus log10 of the concentration in mol/L, and write that number alone.

compound="NCCCC[C@H](NC(=O)[C@H](CCCN=C(N)N)NC(=O)[C@H](CCCN=C(N)N)NC(=O)[C@H](Cc1ccc(O)cc1)NC(=O)[C@H](CCCCN)NC(=O)C1CCC(NC(=O)[C@H](CCCCN)NC(=O)[C@H](CCCCN)NC(=O)[C@@H](N)CCCN=C(N)N)CC1)C(N)=O (some centres not stated) (H-RKK[X1]KYRRK-NH2)" measurement_type=pIC50 quantitative_result=5.98

Can you share its pIC50? I mean this compound: N=C(N)NCCC[C@H](NC(=O)[C@H](CCCNC(=N)N)NC(=O)[C@H](Cc1ccc(O)cc1)NC(=O)C1CCC(NC(=O)C2CCC(NC(=O)[C@H](CCCCN)NC(=O)[C@H](CCCCN)NC(=O)[C@@H](N)CCCNC(=N)N)CC2)CC1)C(=O)N[C@@H](CCCCN)C(N)=O (some centres not stated) (H-RKK[X1][X1]YRRK-NH2)
5.53

----------
# procedure details: Ratio of the inhibitory concentrations against CaMPKII and MLCK. IC50 (CaMPKII ) / IC50 (MLCK).
The following substances are listed with their measured Ratio values.

For orientation, consider the following solved cases.
substance=H-RKKYKPRRK-NH2 result="> 1670"
substance=H-RKKYKQRRK-NH2 result="> 667"
substance=H-RKKYKGRRK-NH2 result="> 645"
substance=H-RKKYKKRRK-NH2 result="> 909"

Please give the measured Ratio for this substance: H-RKKYKHRRK-NH2
56

Endpoint output: Ratio of H-RKKYKLRRK-NH2 . Value?
413

I have this substance here, H-RKKYKERRK-NH2 , and I need its recorded Ratio.
> 230

Give its Ratio value. Item: H-RKKYKWRRK-NH2
134

Using the record for H-RKKYKNRRK-NH2 , report its Ratio.
> 690

----------
# Myosin light chain kinase, smooth muscle (Gallus gallus, UniProt P11799): pIC50 values follow
# Sequence (P11799 whole entry): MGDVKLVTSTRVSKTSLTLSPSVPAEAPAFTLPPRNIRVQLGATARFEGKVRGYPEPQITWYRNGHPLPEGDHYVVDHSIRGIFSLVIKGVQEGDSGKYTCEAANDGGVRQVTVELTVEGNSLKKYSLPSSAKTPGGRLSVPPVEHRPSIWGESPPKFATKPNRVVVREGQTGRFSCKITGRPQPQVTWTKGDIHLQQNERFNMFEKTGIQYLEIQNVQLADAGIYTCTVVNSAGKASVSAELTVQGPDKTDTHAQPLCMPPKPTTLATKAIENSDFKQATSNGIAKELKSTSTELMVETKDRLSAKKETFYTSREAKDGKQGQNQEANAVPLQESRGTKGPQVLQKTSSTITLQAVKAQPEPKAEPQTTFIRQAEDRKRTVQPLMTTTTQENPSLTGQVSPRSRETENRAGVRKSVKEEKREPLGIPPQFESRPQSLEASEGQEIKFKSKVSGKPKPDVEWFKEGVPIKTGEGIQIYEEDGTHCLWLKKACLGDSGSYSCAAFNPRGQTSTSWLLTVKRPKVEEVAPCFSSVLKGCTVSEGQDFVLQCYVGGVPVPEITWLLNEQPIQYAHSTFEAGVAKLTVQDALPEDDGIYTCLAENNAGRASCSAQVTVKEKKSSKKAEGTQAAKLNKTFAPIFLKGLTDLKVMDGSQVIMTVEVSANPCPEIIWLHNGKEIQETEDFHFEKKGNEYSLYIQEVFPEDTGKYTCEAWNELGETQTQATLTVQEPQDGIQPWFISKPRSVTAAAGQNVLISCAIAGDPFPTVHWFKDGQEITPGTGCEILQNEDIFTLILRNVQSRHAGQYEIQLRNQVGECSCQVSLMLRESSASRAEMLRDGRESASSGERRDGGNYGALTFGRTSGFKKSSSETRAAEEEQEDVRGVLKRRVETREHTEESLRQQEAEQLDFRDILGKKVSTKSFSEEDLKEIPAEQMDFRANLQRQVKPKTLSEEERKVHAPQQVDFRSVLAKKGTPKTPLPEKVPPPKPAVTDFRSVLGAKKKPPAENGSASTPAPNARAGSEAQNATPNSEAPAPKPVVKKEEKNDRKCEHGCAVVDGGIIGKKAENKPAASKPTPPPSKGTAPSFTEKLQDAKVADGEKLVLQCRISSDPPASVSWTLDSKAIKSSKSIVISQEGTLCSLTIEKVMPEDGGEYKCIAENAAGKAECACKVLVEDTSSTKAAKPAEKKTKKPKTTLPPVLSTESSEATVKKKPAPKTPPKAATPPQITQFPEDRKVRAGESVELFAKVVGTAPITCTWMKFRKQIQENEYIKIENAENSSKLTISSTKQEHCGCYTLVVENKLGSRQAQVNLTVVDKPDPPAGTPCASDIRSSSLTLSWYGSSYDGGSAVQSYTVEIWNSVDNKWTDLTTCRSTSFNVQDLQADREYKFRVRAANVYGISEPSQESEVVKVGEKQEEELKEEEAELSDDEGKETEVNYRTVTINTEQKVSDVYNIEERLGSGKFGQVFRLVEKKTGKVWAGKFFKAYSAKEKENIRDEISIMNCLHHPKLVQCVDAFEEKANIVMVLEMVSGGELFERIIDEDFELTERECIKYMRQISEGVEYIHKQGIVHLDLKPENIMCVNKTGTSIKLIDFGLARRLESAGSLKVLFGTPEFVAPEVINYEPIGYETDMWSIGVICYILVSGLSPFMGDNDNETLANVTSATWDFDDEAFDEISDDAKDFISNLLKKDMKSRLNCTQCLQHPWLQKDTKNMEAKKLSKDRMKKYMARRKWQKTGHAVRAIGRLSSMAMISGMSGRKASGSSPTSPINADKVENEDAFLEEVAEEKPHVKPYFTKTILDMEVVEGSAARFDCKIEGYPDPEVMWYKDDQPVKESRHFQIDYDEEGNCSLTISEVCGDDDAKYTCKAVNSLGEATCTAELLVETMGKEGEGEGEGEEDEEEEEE
Starred links: 1 amine or outer side, 2 acyl side, 3 side chain; linkers in the order of their positions; H or OH if unused. Non-standard residues stand in square brackets, D forms with d. Residues, ends and D or L forms follow the SMILES beside them. X1 = O=C(C1CCC(N[*:1])CC1)[*:2]
A value of pIC50 is the negative decimal logarithm of a concentration given in moles per litre.

Sample records with pIC50:
molecule="NCCCC[C@H](NC(=O)[C@H](CCCN=C(N)N)NC(=O)[C@H](CCCN=C(N)N)NC(=O)C1CCC(NC(=O)[C@H](CCCCN)NC(=O)[C@H](Cc2ccc(O)cc2)NC(=O)[C@H](CCCCN)NC(=O)[C@H](CCCCN)NC(=O)[C@@H](N)CCCN=C(N)N)CC1)C(N)=O (stereo not given in full) (H-RKKYK[X1]RRK-NH2)" quantitative_result=6.57
molecule="N=C(N)NCCC[C@H](NC(=O)C1CCC(NC(=O)C2CCC(NC(=O)C3CCC(NC(=O)[C@H](CCCCN)NC(=O)[C@H](CCCCN)NC(=O)[C@@H](N)CCCNC(=N)N)CC3)CC2)CC1)C(=O)N[C@@H](CCCNC(=N)N)C(=O)N[C@@H](CCCCN)C(N)=O (stereo not given in full) (H-RKK[X1][X1][X1]RRK-NH2)" quantitative_result=4.70
molecule="NCCCC[C@H](NC(=O)[C@H](CCCN=C(N)N)NC(=O)[C@H](CCCN=C(N)N)NC(=O)C1CCC(NC(=O)[C@H](CCCCN)NC(=O)C2CCC(NC(=O)[C@H](CCCCN)NC(=O)[C@H](CCCCN)NC(=O)[C@@H](N)CCCN=C(N)N)CC2)CC1)C(N)=O (stereo not given in full) (H-RKK[X1]K[X1]RRK-NH2)" quantitative_result=4.70
molecule="NCCCC[C@H](NC(=O)[C@H](CCCN=C(N)N)NC(=O)[C@H](CCCN=C(N)N)NC(=O)C1CCC(NC(=O)C2CCC(NC(=O)[C@H](Cc3ccc(O)cc3)NC(=O)[C@H](CCCCN)NC(=O)[C@H](CCCCN)NC(=O)[C@@H](N)CCCN=C(N)N)CC2)CC1)C(N)=O (stereo not given in full) (H-RKKY[X1][X1]RRK-NH2)" quantitative_result=6.96

In the following, a different molecule is considered.
// fetch Myosin light chain kinase, smooth muscle (Gallus gallus, UniProt P11799) pIC50 for NCCCC[C@H](NC(=O)[C@H](CCCN=C(N)N)NC(=O)[C@H](CCCN=C(N)N)NC(=O)[C@H](Cc1ccc(O)cc1)NC(=O)C1CCC(NC(=O)[C@H](Cc2ccc(O)cc2)NC(=O)[C@H](CCCCN)NC(=O)[C@H](CCCCN)NC(=O)[C@@H](N)CCCN=C(N)N)CC1)C(N)=O (stereo not given in full) (H-RKKY[X1]YRRK-NH2)
7.40
